Biological target: UniProt:P07858
Experiment: Ratio of Inhibitory activity against cathepsin B/cathepsin L
Where a SMILES comes first, the peptide text is derived from it. The star is where a group is joined. Cbz = O=C(OCc1ccccc1)*
OUTCOME_MEASURE: Ratio

Use the examples below as a reference point.
COMPOUND	Ratio
CC(=O)N[C@@H](CC(C)C)C(=O)N[C@@H](CC(C)C)C(=O)N[C@H](C=O)CCCNC(=N)N	1.66
C[C@H](NC(=O)[C@H](Cc1ccccc1)NC(=O)OCc1ccccc1)C(=O)O	2.91
O=C(N[C@@H](Cc1ccccc1)C(=O)N[C@@H](Cc1ccccc1)C(=O)O)OCc1ccccc1 (Cbz-Phe-Phe-OH)	94.2
CC(C)C[C@H](NC(=O)[C@H](Cc1ccccc1)NC(=O)OCc1ccccc1)C(=O)O (Cbz-Phe-Leu-OH)	22.7
O=C(N[C@@H](Cc1ccccc1)C(=O)N[C@@H](Cc1ccc(O)cc1)C(=O)O)OCc1ccccc1 (Cbz-Phe-Tyr-OH)	100

Query :: Value lookup for Ratio; key = COc1ccc(C[C@H](NC(=O)[C@H](Cc2ccccc2)NC(=O)OCc2ccccc2)C(=O)O)cc1 (Cbz-Phe-Tyr(Me)-OH)
Result :: 33.1

Query :: Field entry: CCCCOc1ccc(C[C@H](NC(=O)[C@H](Cc2ccccc2)NC(=O)OCc2ccccc2)C(=O)O)cc1
Result :: 120

---

Biological target: Cathepsin B (Homo sapiens, UniProt P07858)
Where a SMILES comes first, the peptide text is derived from it. The star is where a group is joined. Cbz = O=C(OCc1ccccc1)*
Entries whose IC50 is below 0.05 µM take fulfilled; entries at or above 0.05 µM take not fulfilled.

Reference set (4 entries):
COMPOUND	ANSWER_LABEL
O=C(N[C@@H](Cc1ccccc1)C(=O)N[C@@H](Cc1ccccc1)C(=O)O)OCc1ccccc1 (Cbz-Phe-Phe-OH)	not fulfilled
CC(C)C[C@H](NC(=O)[C@H](Cc1ccccc1)NC(=O)OCc1ccccc1)C(=O)O (Cbz-Phe-Leu-OH)	fulfilled
C[C@H](NC(=O)[C@H](Cc1ccccc1)NC(=O)OCc1ccccc1)C(=O)O	fulfilled
COc1ccc(C[C@H](NC(=O)[C@H](Cc2ccccc2)NC(=O)OCc2ccccc2)C(=O)O)cc1 (Cbz-Phe-Tyr(Me)-OH)	not fulfilled

Now examine the next entry.
Query :: # strict comparison: is reported IC50 < 0.05 µM? input = O=C(N[C@@H](Cc1ccccc1)C(=O)N[C@@H](Cc1ccc(O)cc1)C(=O)O)OCc1ccccc1 (Cbz-Phe-Tyr-OH)
Result :: not fulfilled

---

Molecular target: Calpain-2 catalytic subunit (Homo sapiens, UniProt P17655)
Sequence (P17655 whole entry): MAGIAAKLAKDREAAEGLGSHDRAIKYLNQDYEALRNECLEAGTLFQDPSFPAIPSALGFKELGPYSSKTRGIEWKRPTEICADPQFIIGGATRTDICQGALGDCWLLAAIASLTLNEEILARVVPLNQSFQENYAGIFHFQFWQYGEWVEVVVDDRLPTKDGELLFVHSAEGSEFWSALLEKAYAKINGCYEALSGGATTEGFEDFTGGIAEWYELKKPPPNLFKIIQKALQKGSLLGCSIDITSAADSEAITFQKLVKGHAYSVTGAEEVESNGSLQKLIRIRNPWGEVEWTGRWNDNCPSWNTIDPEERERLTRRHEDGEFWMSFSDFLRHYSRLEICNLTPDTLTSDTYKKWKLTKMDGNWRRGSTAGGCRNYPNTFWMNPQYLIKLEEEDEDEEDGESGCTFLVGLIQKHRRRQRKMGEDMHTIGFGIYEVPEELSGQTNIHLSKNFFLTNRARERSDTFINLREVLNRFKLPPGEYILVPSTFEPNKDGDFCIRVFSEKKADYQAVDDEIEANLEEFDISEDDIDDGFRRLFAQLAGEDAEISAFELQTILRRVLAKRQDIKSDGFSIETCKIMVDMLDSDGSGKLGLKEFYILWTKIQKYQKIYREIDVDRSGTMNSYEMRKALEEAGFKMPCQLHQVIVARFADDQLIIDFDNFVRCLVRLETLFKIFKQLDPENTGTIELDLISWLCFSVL
Test: Compound was tested for its inhibitory activity against calpain 2
Where a SMILES comes first, the peptide text is derived from it. The star is where a group is joined. Cbz = O=C(OCc1ccccc1)*
OUTCOME_MEASURE: IC50 (µM)
# output: bare number, implied unit µM

COMPOUND	OUTCOME_MEASURE	UNIT_ANNOTATION	REPORTED
CCCCOc1ccc(C[C@H](NC(=O)[C@H](Cc2ccccc2)NC(=O)OCc2ccccc2)C(=O)O)cc1	IC50	µM	0.0796
COc1ccc(C[C@H](NC(=O)[C@H](Cc2ccccc2)NC(=O)OCc2ccccc2)C(=O)O)cc1 (Cbz-Phe-Tyr(Me)-OH)	IC50	µM	0.104

Now for a further compound.
Query :: Value lookup for IC50; key = O=C(N[C@@H](Cc1ccccc1)C(=O)N[C@@H](Cc1ccc(O)cc1)C(=O)O)OCc1ccccc1 (Cbz-Phe-Tyr-OH)
Result :: 0.184

Data credit: ChEMBL document CHEMBL1128764
